assay: Clearance in Wistar rat at 3 mg/kg, iv after 24 hrs by LC/MS/MS analysis; type: ADME, organism-based; set-up: dose 3 mg/kg, route intravenous; conditions: in vivo
value.type: clearance (mL/min/kg)

1. CN1CCC(COc2cnc(-c3cccc(Cn4nc(-c5cccc(C#N)c5)ccc4=O)c3)nc2)CC1 [TEPOTINIB] | 78.3

###

assay: Half life in beagle dog at 2 mg/kg, iv after 48 hrs by LC/MS/MS analysis; format: ADME, organism-based, Canis lupus familiaris; design: dose 2 mg/kg, route intravenous; conditions: in vivo
value.type: half-life (h)

1) CN1CCC(COc2cnc(-c3cccc(Cn4nc(-c5cccc(C#N)c5)ccc4=O)c3)nc2)CC1 | 7.6

###

experiment: Fraction unbound in beagle dog plasma; assay type: ADME, cell-free, Canis lupus familiaris
value.type: fraction unbound

1. CN1CCC(COc2cnc(-c3cccc(Cn4nc(-c5cccc(C#N)c5)ccc4=O)c3)nc2)CC1 | 0.064

###

IC50: recorded values
biological target: UniProt P08581; experiment: Inhibition of c-Met kinase in human A549 cells assessed as inhibition of phosphorylation after 45 mins by electrochemiluminescence assay
Sequence (P08581 whole entry): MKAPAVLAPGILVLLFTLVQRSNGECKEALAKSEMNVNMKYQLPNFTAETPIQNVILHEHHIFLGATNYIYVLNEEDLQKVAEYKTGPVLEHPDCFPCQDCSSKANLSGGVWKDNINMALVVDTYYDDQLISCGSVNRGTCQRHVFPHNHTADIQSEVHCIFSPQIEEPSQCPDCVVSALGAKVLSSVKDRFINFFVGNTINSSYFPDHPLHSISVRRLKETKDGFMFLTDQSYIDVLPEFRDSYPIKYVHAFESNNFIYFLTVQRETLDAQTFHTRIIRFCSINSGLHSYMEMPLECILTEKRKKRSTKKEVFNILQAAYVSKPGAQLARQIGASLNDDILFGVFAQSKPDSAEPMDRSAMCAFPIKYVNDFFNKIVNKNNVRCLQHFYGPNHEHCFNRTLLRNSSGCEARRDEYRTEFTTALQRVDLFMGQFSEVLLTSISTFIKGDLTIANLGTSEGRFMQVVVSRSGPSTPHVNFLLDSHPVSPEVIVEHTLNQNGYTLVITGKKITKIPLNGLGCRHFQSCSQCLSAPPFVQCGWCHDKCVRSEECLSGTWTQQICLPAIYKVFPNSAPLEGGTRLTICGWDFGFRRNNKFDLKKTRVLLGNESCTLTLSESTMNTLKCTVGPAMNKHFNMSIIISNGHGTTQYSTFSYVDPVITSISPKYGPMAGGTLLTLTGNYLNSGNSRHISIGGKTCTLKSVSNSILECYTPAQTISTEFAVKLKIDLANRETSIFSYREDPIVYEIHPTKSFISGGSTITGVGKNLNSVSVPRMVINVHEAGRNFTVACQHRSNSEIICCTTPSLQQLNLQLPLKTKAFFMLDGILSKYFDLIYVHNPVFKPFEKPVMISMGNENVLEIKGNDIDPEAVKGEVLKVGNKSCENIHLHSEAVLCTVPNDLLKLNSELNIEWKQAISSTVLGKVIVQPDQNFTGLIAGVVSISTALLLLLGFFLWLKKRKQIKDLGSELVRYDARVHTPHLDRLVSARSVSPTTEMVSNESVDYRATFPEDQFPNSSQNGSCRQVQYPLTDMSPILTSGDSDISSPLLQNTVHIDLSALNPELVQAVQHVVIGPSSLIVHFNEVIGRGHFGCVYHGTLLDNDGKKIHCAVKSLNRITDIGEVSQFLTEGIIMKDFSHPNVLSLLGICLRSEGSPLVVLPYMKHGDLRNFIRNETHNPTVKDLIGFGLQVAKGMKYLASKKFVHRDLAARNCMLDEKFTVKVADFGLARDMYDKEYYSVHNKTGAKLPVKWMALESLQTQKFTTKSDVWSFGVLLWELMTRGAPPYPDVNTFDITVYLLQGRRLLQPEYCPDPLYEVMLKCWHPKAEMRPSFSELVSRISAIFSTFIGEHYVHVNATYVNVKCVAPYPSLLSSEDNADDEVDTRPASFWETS
value.type: IC50 (nM)

1) CCN(CC)CCCOC(=O)Nc1cccc(CN2N=C(c3ccc(OC)c(OC)c3)CSC2=O)c1 | 1100
2) CN(C)CCCOc1cnc(-c2cccc(Cn3nc(-c4cccc(F)c4)ccc3=O)c2)nc1 | 140
3) CN(C)CCCOC(=O)Nc1cccc(CN2N=C(c3cc(F)cc(F)c3)CSC2=O)c1 | 78
4) N#Cc1cccc(-c2ccc(=O)n(Cc3cccc(-c4ncc(OCCN5CCOCC5)cn4)c3)n2)c1 | 34

###

assay: Half life in cynomolgus monkey at 2 mg/kg, iv after 72 hrs by LC/MS/MS analysis; assay type: ADME, organism-based, Macaca fascicularis; parameters: dose 2 mg/kg, route intravenous; conditions: in vivo
value.type: half-life (min)

1) CN1CCC(COc2cnc(-c3cccc(Cn4nc(-c5cccc(C#N)c5)ccc4=O)c3)nc2)CC1 | 600

###

test: Aqueous solubility of the compound in phosphate buffer at pH 7.4; format: physicochemical
value.type: solubility

1. Cc1cnc(-c2cccc(Cn3nc(-c4cc(F)cc(F)c4)ccc3=O)c2)nc1 | < 1 µg/mL

###

assay: Cmax in NMRI mouse at 5 mg/kg, po after 24 hrs by LC/MS/MS analysis; type: ADME, organism-based; design: dose 5 mg/kg, route oral; conditions: in vivo
value.type: Cmax (ng/mL)

1. CN1CCC(COc2cnc(-c3cccc(Cn4nc(-c5cccc(C#N)c5)ccc4=O)c3)nc2)CC1 | 62.2

###

assay: Clearance in cynomolgus monkey at 2 mg/kg, iv after 72 hrs by LC/MS/MS analysis; format: ADME, organism-based, Macaca fascicularis; set-up: dose 2 mg/kg, route intravenous; details: in vivo
value.type: clearance (mL/min/kg)

1. CN1CCC(COc2cnc(-c3cccc(Cn4nc(-c5cccc(C#N)c5)ccc4=O)c3)nc2)CC1 [TEPOTINIB] | 12.2

###

assay: Lipophilicity, log D of the compound; format: physicochemical; details: octanol/water
value.type: logD

1) CN(C)CCCOc1cnc(-c2cccc(Cn3nc(-c4cccc(C#N)c4)ccc3=O)c2)nc1 | 2.4
2) CN(C)CCCOc1cnc(-c2cccc(Cn3nc(-c4cc(F)cc(F)c4)ccc3=O)c2)nc1 | 3
3) COc1cccc(-c2ccc(=O)n(Cc3cccc(-c4ncc(OCCCN(C)C)cn4)c3)n2)c1 | 2.6
4) CN(C)CCCOc1cnc(-c2cccc(Cn3nc(-c4cccnc4)ccc3=O)c2)nc1 | 1.4
5) CN(C)CCCOc1cnc(-c2cccc(Cn3nc(-c4cccc(F)c4)ccc3=O)c2)nc1 | 2.6
